Quick reference for phosphorylation enrichment among some sequences
- Tested on: AncSZ
- assay: phosphorylation enrichment, bacterial display (enrichment ratio); higher = better substrate or ligand; peptides without Tyr show the background
Answer using only a numeral; do not append any unit.

Example cases with answers are listed next.
| macromolecule sequence | phosphorylation enrichment |
| --- | --- |
| QLQVFYATLDQ [MIPEP_Y579] | 1.74 |
| KDQGIYEDFVE [MYL6_Y86_T85I_YF] | 1.45 |
| DEDEEYEFMNR [ERBB3_Y1197_YF] | 1.26 |
| KRLKDYLTVLQ [USP25_Y425] | 0.679 |
| DVQNAYDSNHC [ZFYVE16_Y36] | 0.999 |

## Task Recall the recorded phosphorylation enrichment for EDKSIYRRGAC [PRKCI_Y125_R130C] with AncSZ and state it.
## Result 0.496

## Task What measured phosphorylation enrichment is associated with FQKDVYDIPPS [NEDD9_Y177_YF] on AncSZ?
## Result 1.01

## Task Request: phosphorylation enrichment, test system AncSZ, entry TAALWYIFLHT [ENG_Y612_S615L_YF]
## Result 1.32

## Task Could you share what phosphorylation enrichment was measured for ARVANYQRDGP [CAT_Y386] , tested on AncSZ?
## Result 0.785

----------
phosphorylation enrichment overview
- Test system: c-Abl (mouse)
- assay: phosphorylation enrichment, bacterial display (enrichment ratio); higher = better substrate or ligand; peptides without Tyr show the background
Please respond with just the number, no unit label.

Before answering, review these 3 worked examples.
| macromolecule sequence | phosphorylation enrichment |
| --- | --- |
| ACQGKYTPSGQ [ALDOA_Y343] | 0.693 |
| RISPEYKQNEI [GJB1_Y243_L239I] | 1.06 |
| FNSLLYQVPTS [CALCOCO2_Y358_P357L] | 17.8 |

## Task Kindly state the measured phosphorylation enrichment obtained for RLLVVYPWTQK [HBG1_Y36_R41K] with c-Abl (mouse).
## Result 0.617

## Task Lab note: need phosphorylation enrichment for SLALFYRKVFH [RBL1_Y792_YF] on c-Abl (mouse), anyone have it?
## Result 0.535

## Task # query: phosphorylation enrichment | item KGEDFYFVTCH [FHL1_Y149_C150Y_YF] | system: c-Abl (mouse)
## Result 0.9

## Task What measured phosphorylation enrichment is associated with TEFIQYMRRKN [MAX_Y73_YF] on c-Abl (mouse)?
## Result 0.404

## Task API: value(readout= phosphorylation enrichment, system= c-Abl (mouse), query= TPRNTYKMTSL [MKI67_Y849] )
## Result 0.496

----------
- study system: MERTK (UniProt Q12866)
- Sequence (Q12866 whole entry, looked up): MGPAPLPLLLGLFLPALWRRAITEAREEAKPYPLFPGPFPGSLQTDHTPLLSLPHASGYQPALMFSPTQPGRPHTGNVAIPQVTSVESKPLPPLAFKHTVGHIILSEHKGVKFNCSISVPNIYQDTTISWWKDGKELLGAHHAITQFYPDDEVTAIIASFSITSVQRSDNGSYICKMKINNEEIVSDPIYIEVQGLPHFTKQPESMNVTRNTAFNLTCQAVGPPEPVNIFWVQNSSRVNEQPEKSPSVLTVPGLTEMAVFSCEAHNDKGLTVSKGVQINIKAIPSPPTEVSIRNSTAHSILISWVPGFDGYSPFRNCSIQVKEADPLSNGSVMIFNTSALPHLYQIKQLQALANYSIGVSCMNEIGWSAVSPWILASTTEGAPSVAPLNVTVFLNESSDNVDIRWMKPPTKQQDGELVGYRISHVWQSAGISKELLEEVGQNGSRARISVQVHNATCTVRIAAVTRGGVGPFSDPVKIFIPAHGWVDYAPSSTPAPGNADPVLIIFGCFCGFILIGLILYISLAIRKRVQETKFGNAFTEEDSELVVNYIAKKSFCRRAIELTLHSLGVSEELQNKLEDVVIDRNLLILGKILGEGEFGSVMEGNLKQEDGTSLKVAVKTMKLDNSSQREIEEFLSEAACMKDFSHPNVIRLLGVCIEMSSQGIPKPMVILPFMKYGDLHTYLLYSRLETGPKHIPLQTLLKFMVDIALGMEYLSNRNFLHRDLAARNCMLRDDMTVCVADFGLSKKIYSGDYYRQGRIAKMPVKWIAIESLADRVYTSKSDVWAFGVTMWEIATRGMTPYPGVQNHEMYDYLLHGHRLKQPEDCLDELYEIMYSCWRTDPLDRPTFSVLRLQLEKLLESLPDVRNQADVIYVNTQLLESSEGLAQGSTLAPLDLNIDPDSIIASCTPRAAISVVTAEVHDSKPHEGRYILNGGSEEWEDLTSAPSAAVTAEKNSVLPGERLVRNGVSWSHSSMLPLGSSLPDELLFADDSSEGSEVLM
- assay: phosphorylation enrichment, bacterial display (enrichment ratio); higher = better substrate or ligand; peptides without Tyr show the background
In this section we review reported phosphorylation enrichment values for a set of sequences.
I'd appreciate a reply containing only the number, no unit.

Here are 3 sequences together with their reported answers.
| macromolecule sequence | study system | measurement type | result |
| --- | --- | --- | --- |
| FSQQTYCRVSN [ABCD1_Y180_Y181C] | MERTK (UniProt Q12866) | phosphorylation enrichment | 0.745 |
| KLASTYREAAT [DEAF1_Y483_H479L] | MERTK (UniProt Q12866) | phosphorylation enrichment | 0.344 |
| TENAGYFFRVS | MERTK (UniProt Q12866) | phosphorylation enrichment | 0.369 |

Now consider the entry below.
## Task // query phosphorylation enrichment value for entry IRTDAYVPAMT [RPE65_Y89_R91P]
## Result 0.367

----------
- study system: Jak2 (UniProt O60674)
- Sequence (O60674 whole entry, looked up): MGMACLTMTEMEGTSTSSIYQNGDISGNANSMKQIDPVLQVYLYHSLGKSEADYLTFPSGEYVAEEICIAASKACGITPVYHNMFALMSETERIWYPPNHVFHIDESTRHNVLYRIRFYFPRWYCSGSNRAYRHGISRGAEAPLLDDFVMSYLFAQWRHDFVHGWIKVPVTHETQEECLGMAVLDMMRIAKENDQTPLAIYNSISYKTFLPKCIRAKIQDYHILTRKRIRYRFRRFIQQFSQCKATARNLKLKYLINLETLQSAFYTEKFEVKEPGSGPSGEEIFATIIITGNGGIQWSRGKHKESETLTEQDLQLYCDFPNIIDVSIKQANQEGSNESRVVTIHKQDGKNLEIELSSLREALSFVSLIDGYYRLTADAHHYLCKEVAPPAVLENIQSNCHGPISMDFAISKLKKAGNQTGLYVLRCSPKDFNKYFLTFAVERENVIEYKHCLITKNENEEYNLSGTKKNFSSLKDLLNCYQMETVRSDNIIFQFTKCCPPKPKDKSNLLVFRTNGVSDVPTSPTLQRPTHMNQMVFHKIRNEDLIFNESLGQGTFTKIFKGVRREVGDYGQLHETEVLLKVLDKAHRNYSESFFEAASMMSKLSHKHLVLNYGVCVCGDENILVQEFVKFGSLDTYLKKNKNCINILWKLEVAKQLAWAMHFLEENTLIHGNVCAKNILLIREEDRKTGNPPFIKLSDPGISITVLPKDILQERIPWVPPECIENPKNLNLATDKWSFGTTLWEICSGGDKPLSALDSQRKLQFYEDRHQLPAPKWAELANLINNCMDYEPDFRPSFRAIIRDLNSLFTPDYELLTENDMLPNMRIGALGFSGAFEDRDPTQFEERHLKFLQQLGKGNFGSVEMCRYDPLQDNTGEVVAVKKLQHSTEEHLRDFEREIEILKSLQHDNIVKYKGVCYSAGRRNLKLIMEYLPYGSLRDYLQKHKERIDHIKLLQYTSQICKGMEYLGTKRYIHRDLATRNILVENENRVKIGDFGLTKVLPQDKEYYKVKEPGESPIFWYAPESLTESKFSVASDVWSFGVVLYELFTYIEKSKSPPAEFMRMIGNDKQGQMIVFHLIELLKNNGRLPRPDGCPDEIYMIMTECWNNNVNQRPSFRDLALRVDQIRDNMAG
- assay: phosphorylation enrichment, bacterial display (enrichment ratio); higher = better substrate or ligand; peptides without Tyr show the background
Entry flag: 1 if phosphorylation enrichment reaches 0.9; 0 if it does not.

## Task Evaluate KDDEKYLDVSR [MTM1_Y260_I264S] : phosphorylation enrichment at minimum 0.9?
## Result 1

## Task For this sequence, is measured phosphorylation enrichment 0.9 or higher? YKEQGYHRLPP [RIN1_Y681]
## Result 1

----------
Each entry below lists one item and its recorded SH2 binding enrichment value.
- study system: Grb2 SH2 (UniProt P62993)
- Sequence (P62993 whole entry, looked up): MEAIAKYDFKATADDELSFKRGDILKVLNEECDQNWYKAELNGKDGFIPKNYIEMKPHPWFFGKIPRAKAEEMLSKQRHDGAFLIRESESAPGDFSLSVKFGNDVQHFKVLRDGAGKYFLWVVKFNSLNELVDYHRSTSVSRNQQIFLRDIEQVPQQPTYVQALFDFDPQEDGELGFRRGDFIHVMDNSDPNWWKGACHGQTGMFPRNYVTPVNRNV
- assay: SH2 binding enrichment of the phosphorylated peptide, bacterial display (enrichment ratio); higher = better substrate or ligand; peptides without Tyr show the background

| macromolecule sequence | SH2 binding enrichment |
| --- | --- |
| ISKKIYDPIHD [CTNNA3_Y614_T616P] | 0.691 |
| REETTYLPLTS [ICAM3_Y527_S525T] | 0.957 |
| MASISYDYCRV [BST2_Y6_T4I] | 1.1 |
| NYAKMYCNPDA [KNL1_Y489] | 0.795 |

## Task Query for Grb2 SH2 (UniProt P62993): what SH2 binding enrichment does the record show for IPGGIYNADLN [CST4_Y35_D36N] ?
## Result 0.943

## Task Param readout= SH2 binding enrichment; system= Grb2 SH2 (UniProt P62993); entry= ESAAIYNPVIY [RHO_Y301_K296E] ; returns value.
## Result 0.758

## Task Give Grb2 SH2 (UniProt P62993) SH2 binding enrichment for LQLLGDRPVYS [CHST6_Y358_Y358D]
## Result 0.772

## Task SH2 binding enrichment of YLQEIYNSNNQ [FGG_Y140] on Grb2 SH2 (UniProt P62993)?
## Result 0.679

## Task API: value(readout= SH2 binding enrichment, system= Grb2 SH2 (UniProt P62993), query= SVMAEYGLYAA [VSX2_Y219_G223A] )
## Result 0.838

----------
# phosphorylation enrichment annotations
- Tested on: Fer (mouse)
- assay: phosphorylation enrichment, bacterial display (enrichment ratio); higher = better substrate or ligand; peptides without Tyr show the background

| macromolecule sequence | phosphorylation enrichment |
| --- | --- |
| NKVKFYIPFMN [NCR1_Y84_D87Y_YF] | 0.507 |
| GLIPAYHRVIM [NMNAT1_Y64] | 0.502 |
| VLTSKHRGGGG [HBA1_Y141_Y141H] | 0.222 |
| LENSTYQFICV [CRB1_Y760_R764C_YF] | 8.22 |
| CEHRGFLFLAI [TEK_Y897_Y897F_YF] | 0.515 |

## Task // returns reported phosphorylation enrichment for input TLSGIYQFNIA [FOXL2_Y81_I84N_YF]
## Result 7.33

## Task Consider the sequence shown here: SQSKGYRPKLY [SIPA1L3_Y1376_G1371S] What is its recorded phosphorylation enrichment?
## Result 0.364

----------
- study system: Grb2 SH2 (UniProt P62993)
- assay: SH2 binding enrichment of the phosphorylated peptide, bacterial display (enrichment ratio); higher = better substrate or ligand; peptides without Tyr show the background
Label true (1) when SH2 binding enrichment is at or above 0.8; otherwise label false (0).

Solved cases (4 shown):
| macromolecule sequence | class label |
| --- | --- |
| EVRAQYEEIAQ [KRT76_Y361] | false (0) |
| QTPVLYTMLDH [MPZ_Y220_A221T] | true (1) |
| DGTIVYTGLET [USH2A_Y4487] | true (1) |
| FSEVRYVKEPF [HIPK4_Y170_YF] | true (1) |

Okay, now this sequence:
## Task Reported SH2 binding enrichment reaches at least 0.8 for FARECYSALPQ [SARS2_Y52_G51C_YF] ?
## Result false (0)

----------
- Tested on: c-Src
- assay: phosphorylation enrichment, bacterial display (enrichment ratio); higher = better substrate or ligand; peptides without Tyr show the background
measurement type: phosphorylation enrichment

| macromolecule sequence | phosphorylation enrichment |
| --- | --- |
| SVNCTYSPALN [TP53_Y126_T123N] | 0.849 |

## Task Returns the measured phosphorylation enrichment for the input sequence. Input: QAQMDYRRLQP [MPL_Y591]
## Result 0.428

## Task May I ask what phosphorylation enrichment has been recorded for LPVHFYSHVEH [PYGM_Y204_G205S] ?
## Result 1.21

----------
- System: AncSZ
- assay: phosphorylation enrichment, bacterial display (enrichment ratio); higher = better substrate or ligand; peptides without Tyr show the background
I would appreciate it if you labelled entries criterion met when phosphorylation enrichment is 1 or higher, otherwise criterion not met.

Please review the following examples before continuing.
| macromolecule sequence | study system | class label |
| --- | --- | --- |
| SLALFYRKVYH [RBL1_Y792] | AncSZ | criterion met |
| NFFDLYGGEKF [PTPN11_Y66_D61N_YF] | AncSZ | criterion not met |
| LLVVLYKFRCF [PSEN1_Y154_Y159F_YF] | AncSZ | criterion met |
| EQKKNYNAMKK [SCN5A_Y1495_Y1494N] | AncSZ | criterion not met |
| IPGGIYNADLN [CST4_Y35_D36N] | AncSZ | criterion not met |
| GGRIDYIAGLV [APRT_Y60_D65V] | AncSZ | criterion met |
| QTEAQYRFIFM [PTPN11_Y511_YF] | AncSZ | criterion met |
| WDLTDYLMKIL [ACTB_Y188_R183W] | AncSZ | criterion met |
| YLRTGYSVPYG [TGM1_Y370] | AncSZ | criterion not met |
| RLLVVYTWTQR [HBB_Y36_P37T] | AncSZ | criterion met |

## Task Entry VVKTVYSLQPS [KNSTRN_Y87_P92S] : is its phosphorylation enrichment no less than 1?
## Result criterion not met

## Task Can KGYCGYSYDDI [TMEM230_Y110_R108C] be said to have phosphorylation enrichment at or above 1?
## Result criterion met

## Task I'd appreciate it if you could say whether ILTFKYLQIPM [KIT_Y547_K550I_YF] has phosphorylation enrichment at least equal to 1.
## Result criterion met

Recorded values, source the supplement of paper PMC10065799.
